assay: Antagonist activity at human CXCR3 expressed in L1.2 cells assessed as inhibition of I-TAC-induced cell migration by flow cytometry
measured parameter: IC50 (nM)
State just the number; it will be interpreted in nM.

### Prompt # IC50 lookup, item CCN(CC)C(=O)[C@@H]1C=C2c3cccc4[nH]cc(c34)C[C@H]2N(C(=O)Nc2ccccc2)C1
### Response 74
